Answer each item with its documented Percent Effect.
molecular target: Sialic acid-binding Ig-like lectin 9 (Homo sapiens) (UniProt Q9Y336); assay: Hs-Siglec9 ALPHAscreen SOP 20170721; parameters: scale not given: direction of the effect not stated beside the values; settings: 10 µM
Sequence (Q9Y336 whole entry): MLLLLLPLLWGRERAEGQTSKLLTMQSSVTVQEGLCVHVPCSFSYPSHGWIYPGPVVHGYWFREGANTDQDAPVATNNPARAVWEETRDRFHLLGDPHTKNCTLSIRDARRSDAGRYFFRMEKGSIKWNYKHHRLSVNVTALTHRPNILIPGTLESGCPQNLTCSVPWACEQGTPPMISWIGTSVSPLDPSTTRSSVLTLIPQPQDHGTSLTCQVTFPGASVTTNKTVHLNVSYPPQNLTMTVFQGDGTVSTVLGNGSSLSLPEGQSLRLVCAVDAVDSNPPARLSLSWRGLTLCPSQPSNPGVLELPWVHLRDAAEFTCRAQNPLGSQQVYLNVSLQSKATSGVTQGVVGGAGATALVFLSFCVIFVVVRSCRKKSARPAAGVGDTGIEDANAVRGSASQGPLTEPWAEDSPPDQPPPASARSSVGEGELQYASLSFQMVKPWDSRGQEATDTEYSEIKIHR
Please reply with the bare figure in % and do not write the unit itself.

# query: Percent Effect of entry CN(CC1COc2ccccc2O1)C(=O)NCCCn1ccnc1 (stereo not drawn)
-8.39

# query: Percent Effect of entry CN(C)[C@@H]1CCN(c2ncccn2)[C@H]1Cc1ccncc1
0.217

# query: Percent Effect of entry NC(=O)c1cc(C2CCCN(C(=O)CCc3ccsc3)C2)n[nH]1 (stereo not drawn)
-5.24

# query: Percent Effect of entry Cc1ccoc1-c1nnc(CNCCn2cccn2)o1
-12.1

# query: Percent Effect of entry O=C(N[C@@H]1CN(Cc2ccc3c(c2)OCO3)[C@@H]2CCCO[C@@H]21)C1CC1
0.764

# query: Percent Effect of entry CCn1nc(C)cc1C(=O)Nc1cc(F)ccc1OCC1CCCO1 (stereo not drawn)
7.39

# query: Percent Effect of entry CCC(C)c1noc(C2CCN(C(=O)c3cccnc3)CC2)n1 (stereo not drawn)
6.36

# query: Percent Effect of entry Cc1cnn(CC2CN(c3ncnc4ccsc34)CCO2)c1 (stereo not drawn)
-10
